Assay: Tissue distribution of RPM constituents after oral RPM extract
Conditions: both, Sprague-Dawley, rat, liver, po, 18 g/kg, AUC0-t in liver, rat tissue: liver; 18 g/kg RPM extract p.o.; tissues collected at 5, 15, 60 min
quantity kind: AUC(0-t) (µM·h)
Write down the numeric answer in µM·h and omit the unit.

Check out these entries, answers already filled in.
molecule | AUC(0-t), µM·h
COc1cc(O)cc2c1C(=O)c1c(O)cc(CO)cc1C2=O | 0.0553
OC[C@H]1O[C@@H](Oc2c(O)cc(O)cc2/C=C/c2ccc(O)cc2)[C@H](O)[C@@H](O)[C@@H]1O | 114
Cc1cc(O)c2c(c1)C(=O)c1cccc(O)c1C2=O | 0.0273
COc1cc(O[C@@H]2O[C@H](CO)[C@@H](O)[C@H](O)[C@H]2O)c2c(c1)C(=O)c1cc(C)cc(O)c1C2=O [PG, physcion-8-O-β-D-glucoside] | 3.38

// returns reported AUC(0-t) for input COc1cc(O[C@@H]2O[C@H](CO)[C@@H](O)[C@H](O)[C@H]2O)c2c(O)c(C(C)=O)c(C)cc2c1 [TG, torachrysone-8-O-glucoside]
3.81

====

Readings of log10 of AUC(0-t) for the listed molecules
Experiment: Tissue distribution of RPM constituents after oral RPM extract
Settings: both, Sprague-Dawley, rat, bladder, po, 18 g/kg, AUC0-t in bladder, rat tissue: bladder; 18 g/kg RPM extract p.o.; tissues collected at 5, 15, 60 min
Response schema: value (number) is log10 of AUC(0-t) in units of µM·h.

molecule | quantity kind | test result
COc1cc(O[C@@H]2O[C@H](CO)[C@@H](O)[C@H](O)[C@H]2O)c2c(O)c(C(C)=O)c(C)cc2c1 [TG, torachrysone-8-O-glucoside] | log10 of AUC(0-t) | -0.36
OC[C@H]1O[C@@H](Oc2c(O)cc(O)cc2/C=C/c2ccc(O)cc2)[C@H](O)[C@@H](O)[C@@H]1O | log10 of AUC(0-t) | 1.26
COc1cc(O[C@@H]2O[C@H](CO)[C@@H](O)[C@H](O)[C@H]2O)c2c(c1)C(=O)c1cc(C)cc(O)c1C2=O [PG, physcion-8-O-β-D-glucoside] | log10 of AUC(0-t) | -0.69

// returns reported log10 of AUC(0-t) for input COc1cc(O)cc2c1C(=O)c1c(O)cc(CO)cc1C2=O
-1.77

// returns reported log10 of AUC(0-t) for input Cc1cc(O)c2c(c1)C(=O)c1cccc(O)c1C2=O
-1.42

====

Experiment: in vivo
Conditions: both, Sprague-Dawley, rat, po, 18 g/kg, AUC0-t in intestine
quantity kind: AUC(0-t) (µM·h)
Write down the numeric answer in µM·h and omit the unit.

// returns reported AUC(0-t) for input O=C1c2cc(O)cc(O)c2C(=O)c2c(O)cc(CO)cc21
0.211

====

Assay: Plasma pharmacokinetics of RPM constituents after oral RPM extract
Settings: Sprague-Dawley, rat, plasma, po, 6 g/kg
quantity kind: half-life (h)
Write down the numeric answer in h and omit the unit.

mol smiles | test result
OC[C@H]1O[C@@H](Oc2c(O)cc(O)cc2/C=C/c2ccc(O)cc2)[C@H](O)[C@@H](O)[C@@H]1O | 6.53
COc1cc(O)cc2c1C(=O)c1c(O)cc(CO)cc1C2=O | 8

Below: the item to evaluate.
// returns reported half-life for input Cc1cc(O)c2c(c1)C(=O)c1cc(O)cc(O)c1C2=O
7.72

====

Readings of AUC(0-t) for the listed molecules
Assay: Tissue distribution of RPM constituents after oral RPM extract
Conditions: both, Sprague-Dawley, rat, stomach, po, 18 g/kg, AUC0-t in stomach, rat tissue: stomach; 18 g/kg RPM extract p.o.; tissues collected at 5, 15, 60 min
Write down the numeric answer in µM·h and omit the unit.

molecule | AUC(0-t) / µM·h
OC[C@H]1O[C@@H](Oc2c(O)cc(O)cc2/C=C/c2ccc(O)cc2)[C@H](O)[C@@H](O)[C@@H]1O | 47.9

// returns reported AUC(0-t) for input COc1cc(O[C@@H]2O[C@H](CO)[C@@H](O)[C@H](O)[C@H]2O)c2c(O)c(C(C)=O)c(C)cc2c1 [TG, torachrysone-8-O-glucoside]
1.46

// returns reported AUC(0-t) for input COc1cc(O[C@@H]2O[C@H](CO)[C@@H](O)[C@H](O)[C@H]2O)c2c(c1)C(=O)c1cc(C)cc(O)c1C2=O [PG, physcion-8-O-β-D-glucoside]
1.29
